These data points were gathered from PubChem BioAssay (NCI).

System: RXF 393 renal
MEASUREMENT_PROTOCOL: NCI tumour cell line growth inhibition, 48 h
Everything with TGI lower than 40 µM is false (0); everything else, including exactly 40 µM, is true (1).

compound=O=C1C[C@H](Sc2ccccc2)C2(OCCO2)[C@@H](Sc2ccccc2)C1 label="false (0)"
compound=Clc1ccc(-c2nn3c(-c4ccncc4)nnc3s2)cc1 label="true (1)"
compound=O=c1c(Cl)c(Cl)cnn1CCc1ccncc1 label="true (1)"
compound="C=CCC1[C@@H](C(C)(C)C(C(C)=O)C(=O)C(=O)OC)OC(C(C)(C)C)N1C(=O)OC (stereo partly specified)" label="true (1)"
compound=O=C1C(SCCO)=C(SCCO)C(=O)c2ccccc21 label="false (0)"
compound=NC(=O)c1cccc(Nc2nccc(Nc3cccc(F)c3)n2)c1 label="false (0)"
compound=C/C=C/C=C/c1nc(C#N)c(N)o1 label="true (1)"
compound=Cn1c2ccccc2c2c(=O)c3ccccc3[nH]c21 label="true (1)"

----------
Test system: U251 CNS
MEASUREMENT_PROTOCOL: NCI tumour cell line growth inhibition, 48 h
Entries annotated with measured TGI
MEASURED_PARAMETER: TGI (µM)

sample_smiles=Cc1ccc2c(c1)Sc1ccc(N=NN(C)C)cc1N2C unit_of_measurement=µM readout_qualifier=> result_number=100
sample_smiles=COc1ccc(-c2nnc(N3CCN(C(=O)CN4CCN(c5ccc(OC)cc5)CC4)CC3)nc2-c2ccc(OC)cc2)cc1 unit_of_measurement=µM readout_qualifier== result_number=66.1
sample_smiles=CC(C)(C)NC(=O)/C(=C\Sc1ccccc1)c1ccc2c(c1)OCO2 unit_of_measurement=µM readout_qualifier== result_number=98.6

----------
Tested on: HCC-2998 colon
MEASUREMENT_PROTOCOL: NCI tumour cell line growth inhibition, 48 h
Entries annotated with measured TGI
MEASURED_PARAMETER: TGI (µM)

compound=O=C(N=Nc1cc(Cl)ccc1Cl)NNc1cc(Cl)ccc1Cl experimental_system="HCC-2998 colon" unit_of_measurement=µM readout_qualifier== result_number=94.1
compound=Cc1cc(=O)c2c([nH]1)NS(=O)(=O)NC2=O experimental_system="HCC-2998 colon" unit_of_measurement=µM readout_qualifier=> result_number=100
compound=CC(=O)N[C@H](C(=O)N[C@@H](CCCNC(=N)N)C(=O)N[C@@H](CCCCN)C(=O)N[C@@H](CCCNC(=N)N)C(=O)N[C@]1(C)CCCCCC/C=C\CCC[C@@](C)(C(=O)N[C@@H](CCCNC(=N)N)C(=O)N[C@@H](CCC(=O)O)C(=O)N[C@@H](CC(C)C)C(=O)N[C@H](C(=O)N[C@@H](CCC(=O)O)C(N)=O)C(C)C)NC(=O)[C@H](CCC(N)=O)NC(=O)[C@H](CC(C)C)NC(=O)[C@H](CC(C)C)NC(=O)[C@H](CCCNC(=N)N)NC(=O)[C@H](CCCNC(=N)N)NC(=O)[C@H](CC(C)C)NC1=O)C(C)C experimental_system="HCC-2998 colon" unit_of_measurement=µM readout_qualifier== result_number=46.6
compound=O=C(CNc1ccccc1Cl)Nn1c(-c2ccccc2)nc2ccccc2c1=O experimental_system="HCC-2998 colon" unit_of_measurement=µM readout_qualifier== result_number=39.8
compound=O=C/C(=C(/Cl)c1ccc(O)cc1)c1ccccc1 experimental_system="HCC-2998 colon" unit_of_measurement=µM readout_qualifier=> result_number=100
compound=CNC(=O)c1cc2c(Oc3ccc(NC(=O)C4(C(=O)Nc5ccc(F)cc5)CC4)cc3)ccnc2cc1OC experimental_system="HCC-2998 colon" unit_of_measurement=µM readout_qualifier=> result_number=100
compound="CC1(Cc2ccccc2)NC(=S)NC1=O (stereo not drawn)" experimental_system="HCC-2998 colon" unit_of_measurement=µM readout_qualifier=> result_number=100
compound="COc1cc(C2CC(C)(Nc3ccccc3)Oc3cc4c(cc32)OCO4)cc(OC)c1OC (stereo not drawn)" experimental_system="HCC-2998 colon" unit_of_measurement=µM readout_qualifier== result_number=3.98
compound=O=C1C=CC(=O)N1Nc1ccc([N+](=O)[O-])cc1[N+](=O)[O-] experimental_system="HCC-2998 colon" unit_of_measurement=µM readout_qualifier=> result_number=100
compound=CCOC(=O)C(=O)Nc1ccccc1C(F)(F)F experimental_system="HCC-2998 colon" unit_of_measurement=µM readout_qualifier=> result_number=100
compound=O=C(c1ccc2ccccc2c1)c1c(C(F)(F)F)n([O-])c2ccc(Cl)cc2[n+]1=O experimental_system="HCC-2998 colon" unit_of_measurement=µM readout_qualifier== result_number=2.6
compound=COc1cc2c(cc1-c1c(C)noc1C)cc(C)c(=O)n2Cc1ccccn1 experimental_system="HCC-2998 colon" unit_of_measurement=µM readout_qualifier== result_number=17.3
compound=CCOC(=N)n1c(=O)n(C2=NCCN2)c2ccccc21 experimental_system="HCC-2998 colon" unit_of_measurement=µM readout_qualifier=> result_number=100
compound=Cc1cc2[nH]c3[nH]c(=O)[nH]c(=O)c3c2cc1C experimental_system="HCC-2998 colon" unit_of_measurement=µM readout_qualifier=> result_number=100
compound=BrC/C=C/C[P+](c1ccccc1)(c1ccccc1)c1ccccc1 experimental_system="HCC-2998 colon" unit_of_measurement=µM readout_qualifier=> result_number=100
compound=COc1ccc(/C=C2/CCc3cc4ccc(OC)cc4[o+]c32)c(O)c1 experimental_system="HCC-2998 colon" unit_of_measurement=µM readout_qualifier== result_number=32.6
compound=c1ccc2nc3c(cc4ccccn43)nc2c1 experimental_system="HCC-2998 colon" unit_of_measurement=µM readout_qualifier=> result_number=100
compound=COc1ccc2nc3cc(Cl)ccc3c(NCCCNCCCNc3c4ccc(Cl)cc4nc4ccc(OC)cc34)c2c1 experimental_system="HCC-2998 colon" unit_of_measurement=µM readout_qualifier== result_number=0.147

----------
System: RPMI-8226 leukemia
MEASUREMENT_PROTOCOL: NCI tumour cell line growth inhibition, 48 h
Entries annotated with measured TGI
MEASURED_PARAMETER: TGI

compound=CN(C)Cc1cc(C(=O)/C=C/c2ccc(O)cc2)cc(CN(C)C)c1O experimental_system="RPMI-8226 leukemia" measured_parameter=TGI result="49.8 µM"
compound=O=C1C=CC(=O)N1Nc1ccc([N+](=O)[O-])cc1[N+](=O)[O-] experimental_system="RPMI-8226 leukemia" measured_parameter=TGI result="> 68.7 µM"
compound=O=[N+]([O-])/C(C(Cl)=C(Cl)Cl)=C(\Nc1cccc2cccnc12)SCc1ccccc1 experimental_system="RPMI-8226 leukemia" measured_parameter=TGI result="> 100 µM"
compound=CCOC(=O)/C=C(\C)c1ccc(C)cc1C experimental_system="RPMI-8226 leukemia" measured_parameter=TGI result="68.2 µM"
compound="COC1OC(C)C(OCc2ccccc2)C(OS(=O)(=O)c2ccc(C)cc2)C1OS(=O)(=O)c1ccc(C)cc1 (centres undefined)" experimental_system="RPMI-8226 leukemia" measured_parameter=TGI result="> 100 µM"
compound=COc1ccc(C#CC(=O)O)c(OC)c1 experimental_system="RPMI-8226 leukemia" measured_parameter=TGI result="> 100 µM"
compound="COc1ccc(C2(CC(C)O)SCCCS2)cc1 (centres undefined)" experimental_system="RPMI-8226 leukemia" measured_parameter=TGI result="> 100 µM"
compound=CCC1=C[C@@H]2CN(C1)Cc1c([nH]c3ccccc13)[C@@](C(=O)OC)(c1cc3c(cc1OC)N(C)[C@H]1[C@@](O)(C(=O)OC)[C@H](OC(C)=O)[C@]4(CC)[C@@H]5C[C@@H]5CN5CC[C@]31[C@@H]54)C2 experimental_system="RPMI-8226 leukemia" measured_parameter=TGI result="0.656 µM"
compound=C=C(CN1CCc2ccccc2C1)c1ccc(C(=O)Nc2ccccc2N)cc1 experimental_system="RPMI-8226 leukemia" measured_parameter=TGI result="> 12.9 µM"

----------
Test system: MALME-3M melanoma
MEASUREMENT_PROTOCOL: NCI tumour cell line growth inhibition, 48 h
Where a SMILES comes first, the peptide text is derived from it. The star is where a group is joined. Boc = CC(C)(C)OC(=O)*
MEASURED_PARAMETER: TGI (µM)

compound="C#CCC(N)(CO)C(=O)O (stereo not drawn)" measured_parameter=TGI readout_qualifier=> result_number=100
compound="C=C1CC2(OC1=O)C(=O)N(CCCN1C(=O)C3(CC(=C)C(=O)O3)c3ccccc31)c1ccccc12 (stereo not drawn)" measured_parameter=TGI readout_qualifier== result_number=3.21
compound=O=[N+]([O-])/C(C(Cl)=C(Cl)Cl)=C(\Nc1cccc2cccnc12)SCc1ccccc1 measured_parameter=TGI readout_qualifier== result_number=28.9
compound=CS(=O)(=O)OCCn1c(=O)n(CCOS(C)(=O)=O)c(=O)n(CCOS(C)(=O)=O)c1=O measured_parameter=TGI readout_qualifier=> result_number=100
compound=N#CC(C#N)=CNC(=S)c1ccncc1 measured_parameter=TGI readout_qualifier=> result_number=100
compound=O=S1(=O)NCCCN1CCNc1nccc(-c2c(-c3cccc(O)c3)nc3sccn23)n1 measured_parameter=TGI readout_qualifier== result_number=3.26
compound="C/C(CC1C2CCCC1C2)=N\\NC(N)=O (stereo not drawn)" measured_parameter=TGI readout_qualifier=> result_number=100
compound=Cc1ccccc1Nc1nc2c(s1)C(=O)c1ccccc1C2=O measured_parameter=TGI readout_qualifier== result_number=28.2
compound="O=C1/C(=C\\c2cccc(Oc3ccccc3)c2)S(=O)(=O)C(c2ccccc2)N1Cc1ccccc1 (stereo not drawn)" measured_parameter=TGI readout_qualifier== result_number=37.8
compound=O=S(=O)(CCOCc1ccc(-c2ccc3ncnc(Nc4ccc(OCc5cccc(F)c5)c(Cl)c4)c3c2)o1)c1ccccc1 measured_parameter=TGI readout_qualifier=> result_number=25
compound=CC(C)c1ccccc1NC(=O)/C(Cl)=C1/Sc2ccccc2NC1=O measured_parameter=TGI readout_qualifier== result_number=80.7
compound=Cn1c([N+](=O)[O-])cnc1/C=C1\Oc2cc(Cl)ccc2C1=O measured_parameter=TGI readout_qualifier== result_number=4.13
compound=Nc1c(-c2cccc3ccccc23)c2ccc([N+](=O)[O-])cc2c(=O)n1-c1nc2ccccc2s1 measured_parameter=TGI readout_qualifier== result_number=13.4
compound="COc1ccc(C(OCC2OC(n3cc(C)c(=O)[nH]c3=O)CC2n2cc(Cn3cc(F)c(=O)[nH]c3=O)nn2)(c2ccccc2)c2ccccc2)cc1 (stereo not drawn)" measured_parameter=TGI readout_qualifier== result_number=31.8
compound=COC(=O)c1c2c(cc3c1CC1(C3)Cc3cc4c(c(C(=O)OC)c3C1)CCCC4)CCCC2 measured_parameter=TGI readout_qualifier=> result_number=100
compound="C=C[C@@H]1C(CO)=CCC2[C@H]1CCC1C(C)(C)C(=O)CC[C@]21C (stereo partly drawn)" measured_parameter=TGI readout_qualifier=> result_number=100
compound=COc1ccc(C#CC(=O)O)c(OC)c1 measured_parameter=TGI readout_qualifier=> result_number=100
compound=CC1=C2C(=O)c3ccccc3C2=C(C)S(=O)(=O)O1 measured_parameter=TGI readout_qualifier=> result_number=10
compound=C=CCO/N=C/c1cc(NC(=S)c2ccoc2C)ccc1Cl measured_parameter=TGI readout_qualifier== result_number=31.3
compound=CC[C@H]1CN2CCc3cc(OC)c(OC)cc3[C@@H]2C[C@@H]1C[C@H]1NCCc2cc(OC)c(OC)cc21 measured_parameter=TGI readout_qualifier== result_number=0.255
compound=O=S(=O)(O)c1cc2ccc1/C=C\c1ccc(cc1S(=O)(=O)O)N=Nc1ccc(c(S(=O)(=O)O)c1)/C=C\c1ccc(cc1S(=O)(=O)O)N=N2 measured_parameter=TGI readout_qualifier=> result_number=100
compound=O=C1c2cccnc2-c2nc(-c3ccncc3)cc3c2c1nc1ccccc13 measured_parameter=TGI readout_qualifier== result_number=29.3
compound=CCSc1nc(N)c2cn[nH]c2n1 measured_parameter=TGI readout_qualifier== result_number=67
compound="COc1cccc(/C=C2\\CCC(C)(CN(C)C)C2=O)c1 (stereo not drawn)" measured_parameter=TGI readout_qualifier=> result_number=100
compound=C=CCNC(=S)/N=C/c1c(O)c2ccccc2oc1=O measured_parameter=TGI readout_qualifier== result_number=96
compound="CC(C)(C)OC(=O)NCC(=O)NCC(=O)NCC(=O)NCC(=O)O (Boc-GGGG-OH)" measured_parameter=TGI readout_qualifier=> result_number=100
compound=O=C(NCCCN(CCCCN(CCCNC(=O)C(F)(F)F)Cc1ccccc1)Cc1ccccc1)C(F)(F)F measured_parameter=TGI readout_qualifier== result_number=28.4
compound="CO[C@]12CC(=O)C3(C(C[C@H]4CC5CC=C6C[C@@H](OC(C)=O)CC[C@]6(OC(C)=O)C5C[C@@]43C)C1)C1C[C@H]3[C@@H]4CC=C5C[C@@H](OC(C)=O)CC[C@]5(OC(C)=O)[C@H]4CC[C@]3(C)C12 (stereo partly drawn)" measured_parameter=TGI readout_qualifier== result_number=35
compound=Cc1ncc(C(=O)Nc2ccc(CN3CCN(C)CC3)c(C(F)(F)F)c2)cc1C#Cc1cnc(NC2CC2)c2ncccc12 measured_parameter=TGI readout_qualifier== result_number=1.15
compound=C=CCn1c(=O)ccn(COCCO)c1=O measured_parameter=TGI readout_qualifier=> result_number=100
compound=CCCCCCCCCCN=C(c1ccc(N(C)C)cc1)c1ccc(N(C)C)cc1 measured_parameter=TGI readout_qualifier== result_number=65.8
compound=CC(C)/C(Cl)=N\OC(=O)Nc1ccc(C#N)cc1 measured_parameter=TGI readout_qualifier== result_number=6.81
compound=Cc1c(C(=O)CSc2nc3ccccc3c(=O)n2-c2ccccc2)c(=O)n(-c2ccccc2)n1C measured_parameter=TGI readout_qualifier=> result_number=100
compound="O=C1c2cc3c(cc2CC1Br)CCC3 (stereo not drawn)" measured_parameter=TGI readout_qualifier== result_number=2.82
compound="COc1cc(C2CC(C)(Nc3ccccc3)Oc3cc4c(cc32)OCO4)cc(OC)c1OC (stereo not drawn)" measured_parameter=TGI readout_qualifier=> result_number=100
compound="CC1(c2ccccc2)CC(c2ccccc2)=NO1 (stereo not drawn)" measured_parameter=TGI readout_qualifier=> result_number=100
compound="OC(c1ccc(Br)cc1)(c1cccs1)C1CC1 (stereo not drawn)" measured_parameter=TGI readout_qualifier== result_number=41.5
